// provenance: patent US20190225650A1

targetOfAssay: flag-tagged HIF1α (AA 786-826) / His6-tagged p300 (AA 323-423) complex (Homo sapiens, UniProt Q09472)
Construct: His6-tagged p300 (AA 323-423); made in house; host or cells: E. coli (pETDuet vector)
measurementDescription: HIF1α p300 displacement assay (TR FRET, +CHAPS)
Format: binding
measurementConditions: read-out: IC50 (nM) (HIF1α_p300 Displacement + CHAPS)
Bridge positions count the residues as written; N and C are the ends. Square brackets hold non-standard residues; d marks the D form. Peptide text beside a SMILES is read from it. R8 = C=CCCCCCC[C@@](C)(N)C(=O)O; S5 = C=CCCC[C@](C)(N)C(=O)O; Nle = CCCC[C@H](N)C(=O)O
measuredQuantity: IC50

Examples with answers:
CCCC[C@@H]1NC(=O)[C@H](CC(C)C)NC(=O)[C@H](C(C)C)NC(=O)[C@@](C)(NC(=O)[C@H](CCC(=O)O)NC(=O)[C@H](CC(=O)O)NC(=O)[C@@H](NC(=O)[C@H](Cc2ccccc2)NC(C)=O)[C@@H](C)CC)CCCC=CCCCC2(CCCC=CCCC[C@](C)(C(=O)N[C@@H](CCCNC(=N)N)C(=O)N[C@@H](C)C(=O)N[C@@H](CC(C)C)C(N)=O)NC(=O)[C@H]([C@@H](C)CC)NC(=O)[C@H](C(C)C)NC(=O)[C@H](CC(C)C)NC2=O)NC1=O (some centres unmarked) [SP-213] :: > 700 nM
CSCC[C@H](NC(=O)[C@H](CO)NC(=O)[C@]1(C)CCCC=CCCCCCC[C@@](C)(NC(=O)[C@H](CCC(=O)O)NC(=O)[C@@H](NC(=O)[C@H](CC(C)C)NC(C)=O)[C@@H](C)O)C(=O)N[C@@H](C(C)C)C(=O)N[C@@H](CC(C)C)C(=O)N[C@@H](CCSC)C(=O)N[C@@H](CO)C(=O)N[C@@H](CC(C)C)C(=O)N[C@@H](C(C)C)C(=O)N1)C(=O)N[C@@H](C)C(N)=O [SP-180] (Ac-LTE[R8]VLMSLV[S5]SMA-NH2; staple 4-11) :: > 700 nM
CCCC[C@H](NC(=O)[C@H](CCC(=O)O)NC(=O)[C@@H](NC(=O)[C@@H](NC(=O)[C@H](CC(N)=O)NC(=O)[C@]1(C)CCCC=CCCC[C@](C)(NC(=O)[C@H](C)NC(=O)[C@H](CC(=O)O)NC(=O)[C@@H](NC(=O)[C@H](Cc2ccccc2)NC(C)=O)[C@@H](C)CC)C(=O)N[C@@H]([C@@H](C)O)C(=O)N[C@@H](CC(C)C)C(=O)N[C@@H](CCCC)C(=O)N1)C(C)C)[C@@H](C)CC)C(=O)N[C@@H](C)C(=O)N[C@@H](CC(C)C)C(N)=O [SP-151] (Ac-FIDA[S5]TL[Nle][S5]NVIE[Nle]AL-NH2; staple 5-9) :: 400 to 700 nM

What the record says about CC[C@H](C)[C@H](NC(=O)[C@H](Cc1ccccc1)NC(C)=O)C(=O)N[C@@H](CC(N)=O)C(=O)N[C@@H](CCC(=O)O)C(=O)N[C@@H](CCC(=O)O)C(=O)N[C@H](C(=O)N[C@@H](CC(C)C)C(=O)N[C@@H](CCSC)C(=O)N[C@@]1(C)CCCC=CCCC[C@@](C)(C(=O)N[C@@H](CCSC)C(=O)N[C@@H](C)C(=O)N[C@@H](CC(C)C)C(N)=O)NC(=O)[C@H]([C@@H](C)CC)NC(=O)[C@H](C(C)C)NC(=O)[C@H](CC(C)C)NC1=O)C(C)C [SP-232] (Ac-FINEEVLM[S5]LVI[S5]MAL-NH2; staple 9-13) : IC50 is 400 to 700 nM

IC50 measured on CCCC[C@H](NC(=O)[C@H](CCC(=O)O)NC(=O)[C@@H](NC(=O)[C@@H](NC(=O)[C@H](CC(C)C)NC(=O)[C@]1(C)CCCC=CCCC[C@](C)(NC(=O)[C@H](CCC(=O)O)NC(=O)[C@H](CCCNC(=N)N)NC(=O)[C@@H](NC(=O)[C@H](Cc2ccccc2)NC(C)=O)[C@@H](C)CC)C(=O)N[C@@H](C(C)C)C(=O)N[C@@H](CC(C)C)C(=O)N[C@@H](CCCC)C(=O)N1)C(C)C)[C@@H](C)CC)C(=O)N[C@@H](C)C(=O)N[C@@H](CC(C)C)C(N)=O [SP-155] (Ac-FIRE[S5]VL[Nle][S5]LVIE[Nle]AL-NH2; staple 5-9) = > 700 nM

CC[C@H](C)[C@H](NC(=O)[C@H](Cc1ccccc1)NC(C)=O)C(=O)N[C@@H](CC(=O)O)C(=O)N[C@@H](CCC(=O)O)C(=O)N[C@]1(C)CCCCCCC=CCCC[C@@](C)(C(=O)N[C@@H](CCC(=O)O)C(=O)N[C@@H](CCSC)C(=O)NCC(=O)N[C@@H](CC(C)C)C(N)=O)NC(=O)[C@H](C(C)C)NC(=O)[C@H](CC(C)C)NC(=O)[C@H](CO)NC(=O)[C@H](CCSC)NC(=O)[C@H](CC(C)C)NC(=O)[C@H](C(C)C)NC1=O [SP-187] (Ac-FIDE[R8]VLMSLV[S5]EMGL-NH2; staple 5-12) yielded IC50 of > 700 nM

// sample CC[C@H](C)[C@H](NC(=O)[C@H](Cc1ccccc1)NC(C)=O)C(=O)N[C@@H](CC(=O)O)C(=O)N[C@@H](CCC(=O)O)C(=O)N[C@@H](CCC(N)=O)C(=O)N[C@H](C(=O)N[C@@H](CC(C)C)C(=O)N[C@@H](CCSC)C(=O)N[C@@]1(C)CCCC=CCCC[C@@](C)(C(=O)N[C@@H](CCSC)C(=O)N[C@@H](C)C(=O)N[C@@H](CC(C)C)C(N)=O)NC(=O)[C@H]([C@@H](C)CC)NC(=O)[C@H](C(C)C)NC(=O)[C@H](CC(C)C)NC1=O)C(C)C [SP-234] (Ac-FIDEQVLM[S5]LVI[S5]MAL-NH2; staple 9-13) , its IC50 was 400 to 700 nM

Lab note: CC[C@H](C)[C@H](NC(=O)[C@H](Cc1ccccc1)NC(C)=O)C(=O)N[C@@H](CC(=O)O)C(=O)N[C@@H](CCC(=O)O)C(=O)N[C@@]1(C)CCCC=CCCC[C@@](C)(C(=O)N[C@@H](CC(C)C)C(=O)N[C@H](C(=O)N[C@H](C(=O)N[C@@H](CCC(=O)O)C(=O)N[C@@H](CCSC)C(=O)N[C@@H](C)C(N)=O)[C@@H](C)CC)C(C)C)NC(=O)[C@H](CCSC)NC(=O)[C@H](CC(C)C)NC(=O)[C@H](C(C)C)NC1=O [SP-115] (Ac-FIDE[S5]VLM[S5]LVIEMA-NH2; staple 5-9) gave IC50 of > 700 nM

* * *

Tested on: HRE-bla ME-180 cells
measurementDescription: Reporter gene assay (HRE-bla ME-180 HIF reporter, GeneBLAzer)
Assay type: cell-based, human
measurementConditions: 24 hour normoxia
Procedure: The following reagents were used: • DMEM+GutaMAX: (#10569044, Invitrogen) • Black clear bottom plates: (#3603, Costar) • HRE-bla-ME-180 cell line: (#K1644, Invitrogen) • Gene-Blazer reagent & protocol: (#K1096, Invitrogen) • Plate reader: Biotek Synergy 2 • Chetomin: (C9623, Sigma) 4 hours prior to experiment: HRE-bla ME-180 cells were seeded at a density of 20,000 cells/well in a volume of 180 μl in black clear bottom 96-well plates. 180 μl of assay medium was added to the cell-free control wells. […]
Bridge positions count the residues as written; N and C are the ends. Square brackets hold non-standard residues; d marks the D form. Peptide text beside a SMILES is read from it. R8 = C=CCCCCCC[C@@](C)(N)C(=O)O; S5 = C=CCCC[C@](C)(N)C(=O)O; Nle = CCCC[C@H](N)C(=O)O
measuredQuantity: EC50

Check out these entries, answers already filled in.
CCCC[C@H](NC(=O)[C@H](CCC(=O)O)NC(=O)[C@@H](NC(=O)[C@@H](NC(=O)[C@H](CC(N)=O)NC(=O)[C@]1(C)CCCC=CCCC[C@](C)(NC(=O)[C@H](CCC(=O)O)NC(=O)[C@H](CC(=O)O)NC(=O)[C@@H](NC(=O)[C@H](Cc2ccccc2)NC(C)=O)[C@@H](C)CC)C(=O)N[C@@H](C(C)C)C(=O)N[C@@H](CC(C)C)C(=O)N[C@@H](CCCC)C(=O)N1)C(C)C)[C@@H](C)CC)C(=O)N[C@@H](C)C(=O)N[C@@H](CC(C)C)C(N)=O [SP-143] (Ac-FIDE[S5]VL[Nle][S5]NVIE[Nle]AL-NH2; staple 5-9) :: 5 to 15 µM
CCCC[C@H](NC(=O)[C@H](CCC(=O)O)NC(=O)[C@@H](NC(=O)[C@@H](NC(=O)[C@H](CC(C)C)NC(=O)[C@]1(C)CCCC=CCCC[C@](C)(NC(=O)[C@H](CCC(=O)O)NC(=O)[C@H](CCCNC(=N)N)NC(=O)[C@@H](NC(=O)[C@H](Cc2ccccc2)NC(C)=O)[C@@H](C)CC)C(=O)N[C@@H](C(C)C)C(=O)N[C@@H](CC(C)C)C(=O)N[C@@H](CCCC)C(=O)N1)C(C)C)[C@@H](C)CC)C(=O)N[C@@H](C)C(=O)N[C@@H](CC(C)C)C(N)=O [SP-155] (Ac-FIRE[S5]VL[Nle][S5]LVIE[Nle]AL-NH2; staple 5-9) :: > 30 µM
CCCC[C@H](NC(=O)[C@H](CCC(=O)O)NC(=O)[C@]1(C)CCCC=CCCCCCC[C@@](C)(NC(=O)[C@H](CCC(=O)O)NC(=O)[C@H](C)NC(=O)[C@@H](NC(=O)[C@H](Cc2ccccc2)NC(C)=O)[C@@H](C)CC)C(=O)N[C@@H](C(C)C)C(=O)N[C@@H](CC(C)C)C(=O)N[C@@H](CCCC)C(=O)N[C@@H](CO)C(=O)N[C@@H](CC(C)C)C(=O)N[C@@H](C(C)C)C(=O)N1)C(=O)N[C@@H](C)C(=O)N[C@@H](CC(C)C)C(N)=O [SP-197] (Ac-FIAE[R8]VL[Nle]SLV[S5]E[Nle]AL-NH2; staple 5-12) :: 5 to 15 µM

Entry CC[C@H](C)[C@H](NC(=O)[C@H](Cc1ccccc1)NC(C)=O)C(=O)N[C@@H](CC(=O)O)C(=O)N[C@@H](CCC(=O)O)C(=O)N[C@@]1(C)CCCC=CCCC[C@@](C)(C(=O)N[C@@H](CC(C)C)C(=O)N[C@H](C(=O)N[C@H](C(=O)N[C@@H](CCC(=O)O)C(=O)N[C@@H](CCSC)C(=O)N[C@@H](C)C(=O)N[C@@H](C)C(=O)N[C@@H](C)C(N)=O)[C@@H](C)CC)C(C)C)NC(=O)[C@H](CCSC)NC(=O)[C@H](CC(C)C)NC(=O)[C@H](C(C)C)NC1=O [SP-117] (Ac-FIDE[S5]VLM[S5]LVIEMAAA-NH2; staple 5-9) — recorded EC50 = > 30 µM
